meta.source: PubChem BioAssay AID1963970

System: 931267-113-T-J1-PDC multicell spheroid viability
Assay: Anticancer human tumor 931267-113-T-J1-PDC patient-derived colon adenocarcinoma cell line growth inhibition [PI3K]
Details: second compound 0.00316 µM; first compound 0.000316 µM; stronger effect = lower value
Excerpt: Combinatorial screen of targeted agents with the PI3K inhibitors inavolisib, alpelisib, duvelisib, and copanlisib in multi-cell type tumor spheroids A high-throughput screen of multi-cell type tumor spheroids was designed to identify active combinations of targeted small molecules and PI3K pathway inhibitors. […] Compounds. […] If the clinical Cmax for an agent had not been determined, the highest concentration tested was 10 microM. […]
outcome measure: viability, T/C (%)
Kindly answer with a numeric value in %, unit omitted.

See these solved cases before continuing.
CC(C)n1nc(-c2ccc3oc(N)nc3c2)c2c(N)ncnc21 + CC(Nc1ccc2c(c1)OCCn1cc(N3C(=O)OCC3C(F)F)nc1-2)C(N)=O
94.6
CC(C)n1nc(-c2ccc3oc(N)nc3c2)c2c(N)ncnc21 + COc1c(OCCCN2CCOCC2)ccc2c3n(c(=NC(=O)c4cnc(N)nc4)nc12)CCN3
90.4

Okay, next one:
Given Cn1ncnc1[C@H]1c2n[nH]c(=O)c3cc(F)cc(c23)N[C@@H]1c1ccc(F)cc1 + CC(Nc1ccc2c(c1)OCCn1cc(N3C(=O)OCC3C(F)F)nc1-2)C(N)=O , state its recorded viability, T/C. 98.5

###

system: 931267-113-T-J1-PDC multicell spheroid viability; assay: Anticancer human tumor 931267-113-T-J1-PDC cell line growth inhibition [PI3K]; conditions: second compound 0.00316 µM; first compound 10 µM; stronger effect = lower value;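 further: viability read 7 days after compound addition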
Property: viability, T/C; scope: individual molecules

C#Cc1c(F)ccc2cc(O)cc(-c3ncc4c(N5CC6CCC(C5)N6)nc(OCC56CCCN5CC(F)C6)nc4c3F)c12 (stereo not given) + CC(Nc1ccc2c(c1)OCCn1cc(N3C(=O)OCC3C(F)F)nc1-2)C(N)=O
26%
CC(Cn1ccc(-c2ccc(C#N)c(Cl)c2)n1)NC(=O)c1cc(C(C)O)[nH]n1 (stereo not given) + COc1c(OCCCN2CCOCC2)ccc2c3n(c(=NC(=O)c4cnc(N)nc4)nc12)CCN3
104%
CC(Cn1ccc(-c2ccc(C#N)c(Cl)c2)n1)NC(=O)c1cc(C(C)O)[nH]n1 (stereo not given) + CC(Nc1ccc2c(c1)OCCn1cc(N3C(=O)OCC3C(F)F)nc1-2)C(N)=O
101%

viability, T/C lookup needed for Cn1ncc(Cl)c1-c1cc(C(=O)NC(CN)Cc2cccc(F)c2)sc1Cl (stereo not given) + COc1c(OCCCN2CCOCC2)ccc2c3n(c(=NC(=O)c4cnc(N)nc4)nc12)CCN3 , thanks. 30.8%

Recorded viability, T/C of C[C@@H](NC(=O)c1ncnc(N)c1Cl)c1ncc(C(=O)Nc2cc(C(F)(F)F)c(Cl)cn2)s1 + CC(Nc1ccc2c(c1)OCCn1cc(N3C(=O)OCC3C(F)F)nc1-2)C(N)=O , please. 75.3%

###

Tested on: 931267-113-T-J1-PDC multicell spheroid viability
Assay: Anticancer human tumor 931267-113-T-J1-PDC cell line growth inhibition [PI3K];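 further: viability read 7 days after compound addition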
Settings: second compound 0.0316 µM; first compound 0.0949 µM; stronger effect = lower value
Source text: Combinatorial screen of targeted agents with the PI3K inhibitors inavolisib, alpelisib, duvelisib, and copanlisib in multi-cell type tumor spheroids A high-throughput screen of multi-cell type tumor spheroids was designed to identify active combinations of targeted small molecules and PI3K pathway inhibitors. […] Compounds. […] If the clinical Cmax for an agent had not been determined, the highest concentration tested was 10 microM. […]
outcome measure: viability, T/C (%)
Please respond with the number in % and leave the unit unwritten.

Example compounds with recorded viability, T/C:
Cn1cnc2c(F)c(Nc3ccc(Br)cc3Cl)c(C(=O)NOCCO)cc21 + COc1c(OCCCN2CCOCC2)ccc2c3n(c(=NC(=O)c4cnc(N)nc4)nc12)CCN3
33.7
Cn1cnc2c(F)c(Nc3ccc(Br)cc3Cl)c(C(=O)NOCCO)cc21 + Cc1nc(NC(=O)N2CCCC2C(N)=O)sc1-c1ccnc(C(C)(C)C(F)(F)F)c1
47.3
Cn1cnc2c(F)c(Nc3ccc(Br)cc3Cl)c(C(=O)NOCCO)cc21 + CC(Nc1ncnc2nc[nH]c12)c1cc2cccc(Cl)c2c(=O)n1-c1ccccc1
51.7

Let us move to another entry and its viability, T/C.
For Cn1cnc2c(F)c(Nc3ccc(Br)cc3Cl)c(C(=O)NOCCO)cc21 + CC(Nc1ccc2c(c1)OCCn1cc(N3C(=O)OCC3C(F)F)nc1-2)C(N)=O , what is its reported viability, T/C? 47.9

###

# Lookup of reported IC50 keyed by entry
system: 931267-113-T-J1-PDC multicell spheroid viability; assay: Anticancer human tumor 931267-113-T-J1-PDC cell line growth inhibition [PI3K]; conditions: curve of first compound; second compound 3.16 µM;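 further: viability read 7 days after compound addition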

Before answering, review these 5 worked examples.
CNC(=O)c1ccc(N2C(=S)N(c3ccc(C#N)c(C(F)(F)F)c3)C(=O)C2(C)C)cc1F + CC(Nc1ncnc2nc[nH]c12)c1cc2cccc(Cl)c2c(=O)n1-c1ccccc1
> 10 µM
C#Cc1c(F)ccc2cc(O)cc(-c3ncc4c(N5CC6CCC(C5)N6)nc(OCC56CCCN5CC(F)C6)nc4c3F)c12 (stereo unspecified) + Cc1nc(NC(=O)N2CCCC2C(N)=O)sc1-c1ccnc(C(C)(C)C(F)(F)F)c1
0.104 µM
CCCS(=O)(=O)Nc1ccc(F)c(C(=O)c2c[nH]c3ncc(-c4ccc(Cl)cc4)cc23)c1F + Cc1nc(NC(=O)N2CCCC2C(N)=O)sc1-c1ccnc(C(C)(C)C(F)(F)F)c1
4.53 µM
CC(C)n1nc(-c2ccc3oc(N)nc3c2)c2c(N)ncnc21 + CC(Nc1ncnc2nc[nH]c12)c1cc2cccc(Cl)c2c(=O)n1-c1ccccc1
> 0.1 µM
C=CC(=O)N1CCN(c2nc(=O)n(-c3c(C)ccnc3C(C)C)c3nc(-c4c(O)cccc4F)c(F)cc23)C(C)C1 (stereo unspecified) + Cc1nc(NC(=O)N2CCCC2C(N)=O)sc1-c1ccnc(C(C)(C)C(F)(F)F)c1
> 10 µM

# query: IC50 | item C=CC(=O)N1CCN(c2nc(=O)n(-c3c(C)ccnc3C(C)C)c3nc(-c4c(O)cccc4F)c(F)cc23)C(C)C1 (stereo unspecified) + CC(Nc1ncnc2nc[nH]c12)c1cc2cccc(Cl)c2c(=O)n1-c1ccccc1 | system: 931267-113-T-J1-PDC multicell spheroid viability > 10 µM

Notebook: pull reported IC50 for 931267-113-T-J1-PDC multicell spheroid viability, entry CCN1CCN(Cc2ccc(Nc3ncc(F)c(-c4cc(F)c5nc(C)n(C(C)C)c5c4)n3)nc2)CC1 + Cc1nc(NC(=O)N2CCCC2C(N)=O)sc1-c1ccnc(C(C)(C)C(F)(F)F)c1 > 1 µM

Param readout = IC50; param system = 931267-113-T-J1-PDC multicell spheroid viability; param query = CNC(=O)c1ccc(N2C(=S)N(c3ccc(C#N)c(C(F)(F)F)c3)C(=O)C2(C)C)cc1F + Cc1nc(NC(=O)N2CCCC2C(N)=O)sc1-c1ccnc(C(C)(C)C(F)(F)F)c1 ; response: value > 10 µM

Request: IC50, test system 931267-113-T-J1-PDC multicell spheroid viability, entry CC(=O)c1c(C)c2cnc(Nc3ccc(N4CCNCC4)cn3)nc2n(C2CCCC2)c1=O + CC(Nc1ncnc2nc[nH]c12)c1cc2cccc(Cl)c2c(=O)n1-c1ccccc1 > 0.1 µM

Param readout= IC50; system= 931267-113-T-J1-PDC multicell spheroid viability; entry= C[C@@H](NC(=O)c1ncnc(N)c1Cl)c1ncc(C(=O)Nc2cc(C(F)(F)F)c(Cl)cn2)s1 + CC(Nc1ncnc2nc[nH]c12)c1cc2cccc(Cl)c2c(=O)n1-c1ccccc1 ; returns value. > 10 µM

Requested read-out IC50, target or system 931267-113-T-J1-PDC multicell spheroid viability, entry CC(Cn1ccc(-c2ccc(C#N)c(Cl)c2)n1)NC(=O)c1cc(C(C)O)[nH]n1 (stereo unspecified) + CC(Nc1ncnc2nc[nH]c12)c1cc2cccc(Cl)c2c(=O)n1-c1ccccc1 > 10 µM

###

system: 931267-113-T-J1-PDC multicell spheroid viability; experiment: Anticancer human tumor 931267-113-T-J1-PDC cell line growth inhibition [PI3K]; conditions: second compound 0.0316 µM; first compound 1 µM; stronger effect = lower value;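 further: viability read 7 days after compound addition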
outcome measure: viability, T/C (%)
Give the quantity in %, number only.

C#Cc1c(F)ccc2cc(O)cc(-c3ncc4c(N5CC6CCC(C5)N6)nc(OCC56CCCN5CC(F)C6)nc4c3F)c12 (stereo not drawn) + CC(Nc1ccc2c(c1)OCCn1cc(N3C(=O)OCC3C(F)F)nc1-2)C(N)=O
36.6

What does the record list as viability, T/C for CC(Cn1ccc(-c2ccc(C#N)c(Cl)c2)n1)NC(=O)c1cc(C(C)O)[nH]n1 (stereo not drawn) + COc1c(OCCCN2CCOCC2)ccc2c3n(c(=NC(=O)c4cnc(N)nc4)nc12)CCN3 ? 82.5

Record request: viability, T/C value, item C=CC(=O)N1CCN(c2nc(=O)n(-c3c(C)ccnc3C(C)C)c3nc(-c4c(O)cccc4F)c(F)cc23)C(C)C1 (stereo not drawn) + Cc1nc(NC(=O)N2CCCC2C(N)=O)sc1-c1ccnc(C(C)(C)C(F)(F)F)c1 104
